For each record, write down the corresponding MIC.
System: E. coli ATCC 25922
Assay: microbe, parasite or virus in culture
Details: Escherichia coli, ATCC25922, Trek PS plate; MHB −T80, no additive; n = 2
Give bare numbers, in µg/mL.

# map each compound to its MIC
1. CC1(C)S[C@@H]2[C@H](NC(=O)Cc3ccccc3)C(=O)N2[C@H]1C(=O)O [Penicillin G, penicillin G]
2. CO[C@H]1/C=C/O[C@@]2(C)Oc3c(C)c(O)c4c(O)c(c(/C=N/N5CCN(C)CC5)c(O)c4c3C2=O)NC(=O)/C(C)=C\C=C\[C@H](C)[C@H](O)[C@@H](C)[C@@H](O)[C@@H](C)[C@H](OC(C)=O)[C@@H]1C [Rifampin, rifampin]

(A)
[64, 4]
